# study-target: Kappa-type opioid receptor (Homo sapiens)
# Sequence (P41145 whole entry): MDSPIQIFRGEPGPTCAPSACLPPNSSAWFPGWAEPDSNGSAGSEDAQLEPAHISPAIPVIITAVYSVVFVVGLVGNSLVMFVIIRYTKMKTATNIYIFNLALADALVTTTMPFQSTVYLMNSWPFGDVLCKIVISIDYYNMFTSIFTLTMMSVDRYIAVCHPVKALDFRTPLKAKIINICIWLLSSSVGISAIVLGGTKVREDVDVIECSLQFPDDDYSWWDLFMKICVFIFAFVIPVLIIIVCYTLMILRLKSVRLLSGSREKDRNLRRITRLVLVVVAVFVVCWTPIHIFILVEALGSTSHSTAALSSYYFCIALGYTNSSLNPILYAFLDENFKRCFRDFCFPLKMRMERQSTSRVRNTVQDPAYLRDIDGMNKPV
# test-description: Agonist activity at human kappa opioid receptor expressed in CHO cell membranes assessed as stimulation of [35S]GTPgammaS binding to G protein incubated for 1 hr relative to U69,593
# Type: functional
Calls of active or inactive are those of the source. No cut-off for these calls is given here.
recorded-metric: Efficacy

Recorded Efficacy, per entry:
>>> result("Cc1cc(O)cc(C)c1C[C@H](N)C(=O)N[C@@H]1CCN(S(C)(=O)=O)c2ccc(Cc3cnc4ccccc4c3)cc21.O=C(O)C(F)(F)F")
"inactive"
>>> result("CC(=O)N1CC[C@@H](NC(=O)[C@@H](N)Cc2c(C)cc(O)cc2C)c2cc(Cc3cc4ccccc4o3)ccc21")
"33%"
>>> result("Cc1cc(O)cc(C)c1C[C@H](N)C(=O)N[C@@H]1CCNc2ccc(Cc3cc4ccccc4o3)cc21.O=C(O)C(F)(F)F")
"inactive"
>>> result("Cc1cc(O)cc(C)c1C[C@H](N)C(=O)N[C@@H]1CCN(S(C)(=O)=O)c2ccc(Cc3ccccc3)cc21.O=C(O)C(F)(F)F")
"60%"
>>> result("Cc1cc(O)cc(C)c1C[C@H](N)C(=O)N[C@@H]1CCN(C(=O)C2CC2)c2ccc(Cc3cc4ccccc4o3)cc21.O=C(O)C(F)(F)F")
"inactive"
>>> result("Cc1cc(O)cc(C)c1C[C@H](N)C(=O)N[C@@H]1CCN(C(=O)C2CC2)c2ccc(Cc3cnc4ccccc4c3)cc21.O=C(O)C(F)(F)F")
"inactive"

Name the reported Efficacy value associated with the compound "Cc1cc(O)cc(C)c1C[C@H](N)C(=O)N[C@@H]1CCN(C(=O)c2ccccc2)c2ccc(Cc3ccc4c(c3)OCCO4)cc21.O=C(O)C(F)(F)F"
60%
